Data origin: PubChem BioAssay (NCI)

- Test method notes: NCI Yeast Anticancer Drug Screen. Data for the mlh1 rad18 strain (AID 175)
- Experimental context: S. cerevisiae mlh1 rad18 strain growth inhibition; at 50.0 µM (retest, dose inferred, filed as 5.0)
Compounds without any hit were thinned out: in the full panel of roughly 79,000, 15% have a hit. Calls of active or inactive are those of the source. Rule as the data show it: active = growth inhibition above about 70%; inactive = the rest.
Pick one and only one: Y for active, N for inactive

Input line: Write down the call the test reported for this compound. Item: Cc1cc2nc(CC(=O)c3ccncc3)c(CC(=O)c3ccncc3)nc2cc1C
Output line: N

Input line: So what was the verdict on O=C(CNC(=O)c1ccccc1)Oc1c(Cl)c(Cl)c(Cl)c(Cl)c1Cl in this test?
Output line: Y

Input line: Status in this test for CCNC(=S)NNC(=S)NNc1ccccc1 ?
Output line: Y

Input line: Test call for this compound, please: CN(CC(=O)O)c1ncc2c(n1)-c1ccccc1OC2
Output line: N

Input line: Status in this test for O=C1CSC(c2cccc([N+](=O)[O-])c2)N1c1ccc(-c2ccc(-n3c(-c4ccccc4)nc4ccccc4c3=O)cc2)cc1 (configuration not stated) ?
Output line: Y

Input line: Which outcome was entered for the compound O=C(O)CC(CCCc1ccccc1)C(=O)O (configuration not stated) in this test?
Output line: N

Input line: # outcome recorded in this test, key = Clc1ccc(-c2cc(-c3cc(-c4ccc(Cl)c(Cl)c4)n[nH]3)[nH]n2)cc1Cl
Output line: Y

Input line: Hello, I am checking results. What call was entered for COC(=O)c1cc(OC)c(OC)c(OC)c1 ?
Output line: N

Input line: Assay result, entry C[Si](C)(c1ccccc1)C1CC(=O)CC(=O)C1 — outcome?
Output line: N

Input line: Hi, sorry to bother you, what did the test record for COc1ccc(C(=O)CC2(O)C(=O)N(C)c3c(Cl)cc(Cl)cc32)cc1 (configuration not stated) ?
Output line: N

Input line: State the result this test recorded for C[n+]1c(-c2ccc(/C=N/NC(=O)C(=O)N/N=C/c3ccc(-c4cn5ccccc5[n+]4C)cc3)cc2)cn2ccccc21 .
Output line: Y

Input line: Recorded test outcome, item CC(=O)NC1=C(Oc2ccccc2)C(=O)c2ccccc2C1=O
Output line: Y

Input line: Please share the test call associated with O=c1cccccc1O .
Output line: Y

Input line: Entry CCOC(=O)N1CCN(CCCOc2ccc(Cl)cc2Cc2ccccc2)CC1 : call = ?
Output line: Y

Input line: For NCCSC1(O)C(=O)c2ccccc2-c2ccccc21 (configuration not stated) , which call appears in the assay record?
Output line: Y

Input line: Short answer needed: outcome of this test for Cc1ccc2c(c1)CC1(C2)Cc2ccc(C)cc2C1=O (configuration not stated) ?
Output line: N

Input line: Just curious, what result did O=C(CCN(Cc1ccccc1)Cc1ccccc1)c1ccc2ccccc2c1 get here?
Output line: N

Input line: Outcome? CC1CC(C)C(C)C(CO)C1 (configuration not stated)
Output line: N

Input line: Tell me the recorded outcome of this test for CCC(c1ccc(O)c(C2CCCCC2)c1)C(CC)c1ccc(OC(=O)c2ccccc2)c(C2CCCCC2)c1 (configuration not stated) .
Output line: N

Input line: Hi team, can someone confirm the assay call for Oc1ccc(-c2ccccc2)cc1Br ?
Output line: Y

Input line: Answer briefly: the call reported for O=C(O)CCSCc1cc(C(=O)Nc2ccc(/C=C/c3ccc(NC(=O)c4cc(CSCCC(=O)O)c5cccnc5c4O)cc3S(=O)(=O)O)c(S(=O)(=O)O)c2)c(O)c2ncccc12 in this assay.
Output line: Y

Input line: Would you mind telling me which call this test gave CC(=O)[O-].CC(=O)[O-].CC(=O)[O-].CC(=O)[O-].Cn1c(=O)c2[nH]cnc2n(C)c1=O.Cn1c(=O)c2[nH]cnc2n(C)c1=O.[Rh+2].[Rh+2] ?
Output line: N

Input line: Dear colleague, could you share the recorded outcome for CN(C)CC(CN(C)C)C(=O)c1ccc(Oc2ccccc2)cc1 when you have a moment?
Output line: Y

Input line: Call for entry Cc1nc(-n2nc(-c3ccccc3)cc2-c2ccccc2)sc1C(/C=C\c1ccc([N+](=O)[O-])cc1)=N/NC(=S)NN :
Output line: Y

Input line: For this compound, state the assay outcome: O=[N+]([O-])c1ccc(C2=CSc3ccccc3N2)cc1
Output line: N

Input line: # outcome recorded in this test, key = COc1ccc([N+](=O)[O-])cc1[I+]c1cc([N+](=O)[O-])ccc1OC
Output line: Y

Input line: What outcome does the record of this test show for CCOC(=O)C(CO)c1nc2c([nH]c1=O)c(=O)n(C)c(=O)n2C (configuration not stated) ?
Output line: N

Input line: Identify the outcome logged in this assay for the compound shown: O=C(c1ccc([N+](=O)[O-])cc1)N1CCCSC1=S
Output line: N

Input line: Query: recorded result category for Cc1ccc(N=c2cc(-c3ccccc3)oc3ccccc23)c(C)c1 in this test
Output line: Y

Input line: Entry O=C(Nc1ccccc1-c1nn(C(=S)Nc2ccccc2)c(=S)n(C(=S)Nc2ccccc2)c1=O)C(F)(F)F : call = ?
Output line: Y

Input line: Call for entry CCN(CC)Cc1cc(N=Nc2c(O)ccc3c(N=Nc4ccc(O)c(CN(CC)CC)c4)c(O)ccc23)ccc1O :
Output line: Y

Input line: Fill in: this test's call for COc1c2occc2c(OC)c2c(C)c(C(=O)OCCN3CCOCC3)oc12 is ___
Output line: N

Input line: Per the records of this test, what outcome belongs to O=C(O)C(Br)C(Br)c1ccccc1[N+](=O)[O-] (configuration not stated) ?
Output line: Y

Input line: What call does the record list for Nc1n[n+](-c2ccccc2)no1 ?
Output line: N

Input line: Please let me know the test result on file for O=C(/C=C/C=C/c1ccccc1)c1ccco1 .
Output line: N

Input line: // param item: c1ccc(N/N=C(/CC/C(=N\Nc2ccccc2)c2ccccc2)c2ccccc2)cc1 ; yields the recorded call
Output line: Y

Input line: For this compound, state the assay outcome: Cc1cc([N+](=O)[O-])cc(Cl)c1O
Output line: N

Input line: Fill in: this test's call for O=c1[nH]ccc(CNC23CC4CC(CC(C4)C2)C3)c1O is ___
Output line: N

Input line: Give the logged outcome of this assay for the following compound: O=C(Nc1c(Cl)cccc1Cl)OCCOc1ccc(Cl)cc1Cl
Output line: Y

Input line: Each compound tested received a call. Report the one for Cc1ccc(N)c(Cc2c(O)ccc3ccccc23)c1 .
Output line: Y

Input line: Hi, sorry to bother you, what did the test record for CC(=O)Oc1c(Cl)cc(Cl)cc1C(c1cc(Cl)cc(Cl)c1OC(C)=O)C(Cl)(Cl)Cl ?
Output line: N

Input line: Assay outcome for NS(=O)(=O)c1ccc(NC(=S)/N=C\C(C(=O)c2ccccc2)=C(\O)c2ccccc2)cc1 : what was it?
Output line: N
